System: HCC-2998 colon
Test: NCI-60 one-dose screen, 48 h
Settings: 10 µM unless noted
Compounds without any hit were thinned out: in the full panel of roughly 83,000, 20% have a hit. Activity calls are given as the source filed them. The calls were made as follows: active = growth percent below 10; inactive = the rest.
Classes used: YES = active, NO = inactive

1) NCCn1cc(-c2nc(-c3c[nH]c4ncccc34)cs2)c2ccccc21 | NO
2) c1ccc(CN2C(c3ccccc3)=Nc3ccccc3C2c2c[nH]c3ccccc23)cc1 (stereo not given) | NO
3) CC1=CC(=O)N(c2cccc3c(N4C(=O)C=C(C)C4=O)cccc23)C1=O | NO
4) O=C(NO)c1ccc(Cn2c(=O)n(-c3ccccc3)c(=O)c3ccccc32)cc1 | NO
5) CC(=O)c1c(C)[nH]c(-c2nc3ccc(N4CCN(C)CC4)cc3[nH]2)c1-c1ccc2c(c1)OCCO2 | NO
6) COc1ccc2c(c1)c(-c1nc(-c3cn(C)c4ncccc34)cs1)cn2CCCN1CCCCC1 | NO
7) CN1CCN(c2ccc3nc(-c4[nH]ncc4Nc4ncnc5[nH]ccc45)[nH]c3c2)CC1 | YES
8) O=C1c2ccccc2NC(c2cn(-c3ccccc3)nc2-c2cccs2)N1Cc1ccccc1 (stereo not given) | NO
9) COC(=O)c1cc(=O)nc(N/N=C/c2ccc(C)cc2)s1 | NO
10) NC(=O)NCC1CCCCC1 | NO
11) C=C1C(=O)O[C@H]2[C@H]1CC/C(Cn1cc(-c3ccc(OC)cc3)nn1)=C\CC[C@@]1(C)O[C@@H]21 | YES
12) NC(Cc1ccc(O)cc1)C(=O)N/N=C/c1ccccc1O (stereo not given) | NO
13) COc1cc(-c2cc(-c3nc4ccc(F)cc4[nH]3)[nH]n2)cc(OC)c1OC | NO
14) COc1cc2ncnc(Nc3ccc(Oc4ccnc(C)c4)c(C)c3)c2cc1NC(=O)CC1CCSS1 (stereo not given) | YES
15) CCCCCCCC(=O)SCC/C=C/[C@@H]1CC(=O)NCc2cccc(n2)CN(Cc2ccc3ccccc3c2)CC(=O)N[C@@H](C(C)C)C(=O)O1 | NO
16) Cc1ccc2c(c1)c1nc3cc(C)c(C)cc3nc1n2CCN(C)C | NO
17) Fc1ccc(NCc2nnc(-c3ccc(Cl)cc3)o2)cc1 | NO
18) CC1(c2ccccc2)OC1C(=O)O (stereo not given) | NO
19) COc1cc2[nH]c(C(=O)c3cc(OC)c(OC)c(OC)c3)c(N)c2cc1C#CCO | NO
20) COC(=O)C(Cc1ccccc1)n1cc(COc2nc(Cl)nc(Nc3ccc(Cl)cc3)n2)nn1 (stereo not given) | NO

====

System: SF-295 CNS
Test: NCI-60 one-dose screen, 48 h (100 = growth as untreated, 0 = no growth, -100 = all killed)
Conditions: 10 µM unless noted
This is part of a sample that, as a whole, favours compounds with a hit. Of some 83,000 tested, about 20% had one in any assay.
Binning of growth into classes: bucket 1: < 40%; bucket 2: ≥ 40% and < 90%; bucket 3: ≥ 90%

1) Brc1ccc(Cn2nnnc2-c2ccn(-c3ccccc3)n2)cc1 | bucket 2
2) COc1ccc2c(c1)C(Br)=C(CCO)C2c1ccccc1 (stereo unspecified) | bucket 1
3) COc1ccc2c(c1)c(-c1nc(-c3c[nH]c4ncccc34)cs1)cn2CCNC(=O)OC(C)(C)C | bucket 2
4) COc1ccc(OC)c(-c2c(C#N)c(-c3ccco3)nc3c2c(-c2ccccc2)nn3-c2ccccc2)c1 | bucket 3
5) O=[N+]([O-])c1cc(S(=O)(=O)c2ccc(F)c([N+](=O)[O-])c2)ccc1F | bucket 3
6) Nc1c2c(nc3ccc(Br)cc13)CC(c1ccccc1)CC2=O (stereo unspecified) | bucket 1
7) CC(C)C[C@@H](NC(=O)[C@@H](Cc1ccccc1)NC(=O)c1cnccn1)B1O[C@H]2[C@H](O)[C@@H](C(=O)NCCCC[C@@H]3NC(=O)[C@@H](Cc4ccccc4)NC(=O)[C@H](CC(=O)O)NC(=O)CNC(=O)[C@H](CCCN=C(N)N)NC3=O)O[C@@H](CN)[C@H]2O1 | bucket 1
8) O=S(=O)(NCCNc1cc(-c2cn(-c3ccccc3)nc2-c2cccc(O)c2)ccn1)c1ccc(C(F)(F)F)cc1 | bucket 1
9) CC1(C)[C@@H](O)CC[C@]2(C)[C@H]3CC[C@@H]4[C@H]5[C@H](C(=O)/C=C/c6ccc(C(F)(F)F)cc6)CC[C@]5(CO)CC[C@@]4(C)[C@]3(C)CC[C@@H]12 | bucket 2

====

Tested on: COLO 205 colon
Assay: NCI-60 one-dose screen, 48 h
Conditions: 10 µM unless noted
The panel holds about 83,000 compounds, 20% with a hit somewhere; the sample as a whole holds those more often. Active and inactive are the calls of the source. How the source made its calls: active means growth percent below 10; inactive means the rest.
Outcome codes: 1 = active, 0 = inactive

1. COc1ccc2nc(-c3c(-c4ccccc4)nc4ncccn34)[nH]c2c1 | 0
2. COc1cc2nc(Cl)nc(Nc3cccc(C(=O)/C=C/c4ccc(Br)cc4)c3)c2cc1OC | 0
3. CC1=CC(=O)N(c2cccc3c(N4C(=O)C=C(C)C4=O)cccc23)C1=O | 1
4. CC(C)c1cc(C(=O)O)c(O)c(C(C)C)c1.CC(C)c1cc(C(=O)O)c(O)c(C(C)C)c1.[Mn] | 0
5. N#C/C(=C\c1ccc(-c2ccc(Br)cc2)o1)c1nc(-c2cccs2)cs1 | 0
6. Cn1cc(-c2csc(-c3cn(CCNC(=O)OC(C)(C)C)c4ccc(F)cc34)n2)c2cccnc21 | 0
7. O=C1c2ccccc2C(=Cc2ccccc2)c2ccccc21 | 1
8. Nc1c(C(=O)Nc2cccc3ccccc23)sc2nc3c(cc12)CCCC3 | 1
9. c1ccc2c(-c3nc(-c4c[nH]c5ncccc45)cs3)c[nH]c2c1 | 0
10. Cc1csc(Nc2nc(-c3ccc(Cl)cc3)nc(C(Cl)(Cl)Cl)n2)n1 | 0
11. COC(=O)[C@]12CC[C@@H](C)[C@H](C)[C@@H]1C1=CC[C@@H]3[C@@]4(C)C(c5ncon5)=C[C@@](C)(CO)C4=CC[C@@]3(C)[C@]1(C)CC2 | 1
12. CC(=O)N1N=C(c2ccc(C)cc2)CC1c1ccc(Oc2ccc(Br)cc2)cc1 (stereo unspecified) | 0
13. C[Si](C)(C)Cc1ccccc1 | 0
14. Clc1ccc2[nH]cc(-c3nc(-c4c[nH]c5ncccc45)cs3)c2c1 | 0
15. COC(=O)[C@]12CC[C@@H](C(C)=O)[C@@H]1[C@H]1CC[C@@H]3[C@@]4(C)C/C(=C/c5cccnc5)C(=O)C(C)(C)[C@@H]4CC[C@@]3(C)[C@]1(C)CC2 | 0
16. O=C1C(=O)c2ccccc2C(O)=C1CCCc1ccc(C2CCCCC2)cc1 | 0
17. Cn1cc(-c2csc(-c3cn(CCN)c4ccccc34)n2)c2cccnc21 | 0
18. COc1ccc2nc(-c3cc(-c4cc(OC)c(OC)c(OC)c4)n[nH]3)[nH]c2c1 | 1
19. C=CC(=O)N[C@H](Cc1ccc(-c2cc(Cl)cc(Cl)c2)cc1)[C@H](O)[C@@H](O)C(=O)O | 0
20. COC(=O)C(N)CSC(c1ccccc1)(c1ccccc1)c1ccccc1 (stereo unspecified) | 1
21. O=S(=O)(NCCCNc1cc(-c2cn(-c3ccccc3)nc2-c2cccc(O)c2)ccn1)c1ccc(F)cc1 | 1
22. CC[C@H](CC[C@@H](C)[C@H]1CC[C@H]2[C@@H]3/C(=C/c4cccnc4)C(=O)C4=CC(=O)CC[C@]4(C)[C@H]3CC[C@]12C)C(C)C | 0
23. O=C1CCC/C=C\C[C@H]2C=C(Cl)C(=O)/C2=C/C[C@H](CCCCC(F)(F)F)OC(=O)CCC/C=C\C[C@H]2C=C(Cl)C(=O)/C2=C/C[C@H](CCCCC(F)(F)F)O1 | 1
24. N=C(N)c1ccc(S(N)(=O)=O)cc1 | 0
25. N#CC1C(=N)Cc2ccccc2-c2ccccc21 (stereo unspecified) | 0
26. COc1ccc(-c2nc(Nc3ccc(-c4nc5ccccc5[nH]4)cc3)nc(N3CCOCC3)n2)cc1 | 1
27. O=C1OC(c2ccc(Cl)c(Cl)c2)=C/C1=C/c1cccc([N+](=O)[O-])c1 | 0
28. Nc1c(C(=O)Nc2cccc(Cl)c2)sc2ncc(Cl)cc12 | 0
29. O=C(NC(Cc1cn(Cc2ccccc2)cn1)C(=O)O)OCC1c2ccccc2-c2ccccc21 (stereo unspecified) | 0
30. Cn1cc(-c2csc(-c3cn(C(=O)OC(C)(C)C)c4ccccc34)n2)c2cccnc21 | 0
31. CC(C)=CCC/C(C)=C/CC/C(C)=C/CSC[C@H](NC(=O)CCCCCN1CCN(C)CC1)C(=O)NC1CCCCCC1 | 1
32. C=C(C)[C@@H]1CC[C@]2(C(=O)N3CCN(C)CC3)CC[C@]3(C)[C@H](CC[C@@H]4[C@@]5(C)C/C(=C/c6ccc(C(F)(F)F)cc6)C(=O)C(C)(C)[C@@H]5CC[C@]43C)[C@@H]12 | 0
33. Cc1csc(Nc2nc(-c3cccc(Br)c3)nc(C(Cl)(Cl)Cl)n2)n1 | 1
34. COc1cccc(NC(=O)c2sc3nc4c(cc3c2N)C(=O)CCC4)c1 | 1
35. O=C1CCCC=CC[C@H]2C=C(Cl)C(=O)C2=CC[C@H](CCCCC(F)(F)F)OC(=O)CCCC=CC[C@H]2C=C(Cl)C(=O)C2=CC[C@H](CCCCC(F)(F)F)OC(=O)CCCC=CC[C@H]2C=C(Cl)C(=O)C2=CC[C@H](CCCCC(F)(F)F)O1 | 0
36. O=C1c2cccc3cccc(c23)C(=O)N1CC#Cc1ccc2c3c(cccc13)C(=O)N(CCO)C2=O | 0

Reference for the values: PubChem BioAssay (NCI)
